B1: CPEB3 Ribozyme (parent)
chain: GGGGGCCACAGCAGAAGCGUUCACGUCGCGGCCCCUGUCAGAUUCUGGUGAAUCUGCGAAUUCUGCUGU

Variants of: B1
measurement protocol: self-cleavage, relative activity (ratio to wild type); higher = more cleavage; co-transcriptional
YES means recorded self-cleavage is 0.3 or above; NO means it is below 0.3.

>>> print(df.to_string())
   mutation_annotation  discrete_label
0            C22U C34A              NO
1            G50A A60G             YES
2            A40C U49A             YES
3            U64A G65A             YES
4            A15G G37A              NO

# check: self-cleavage of A23C is greater than or equal to 0.3
YES

Also need A13C U44G , thanks.
YES

Also need C6A A52G , thanks.
YES

Also need A15U U53C , thanks.
YES

Also need G17C C32U , thanks.
NO

Also need G2U G68A , thanks.
NO

Also need C18U C24G , thanks.
NO

Also need G1A U21G , thanks.
NO

Also need G4A U36G , thanks.
YES

Also need G17U G58C , thanks.
YES
